# MEASUREMENT TARGET: P2Y6 (P2ry6^WT BMDMs) (Mus musculus, UniProt Q9ERK9)
# Construct: native full-length receptor, endogenous in mouse bone marrow-derived macrophages (BMDMs); no tag
# Sequence (Q9ERK9 whole entry): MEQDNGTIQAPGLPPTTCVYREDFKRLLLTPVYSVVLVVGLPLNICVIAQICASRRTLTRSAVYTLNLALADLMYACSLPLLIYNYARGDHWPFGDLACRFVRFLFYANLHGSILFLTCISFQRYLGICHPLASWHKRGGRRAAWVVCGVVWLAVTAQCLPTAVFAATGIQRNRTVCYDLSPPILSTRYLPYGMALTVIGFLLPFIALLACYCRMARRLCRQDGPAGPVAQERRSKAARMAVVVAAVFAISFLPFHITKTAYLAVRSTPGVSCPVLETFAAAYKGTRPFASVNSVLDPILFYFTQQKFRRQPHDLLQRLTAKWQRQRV
# PROTOCOL TEXT: Fura-2 intracellular calcium response, BMDMs, Hill fit
# Assay type: cell-based
# TEST PARAMETERS: agonist; native mouse BMDMs; peak F340/F380 normalized to ionomycin; pH 7.4; n = 6; response absent in P2ry6^ΔMy BMDMs; possible conversion to UDP by ectonucleotidases
pEC50: −log10 of the molar value.
RESULT TYPE: pEC50

INSERT INTO results (compound, result_type, reported) VALUES
  ('O=c1ccn([C@@H]2O[C@H](COP(=O)(O)OP(=O)(O)OP(=O)(O)O)[C@@H](O)[C@H]2O)c(=O)[nH]1 [UTP]', 'pEC50', 6.99);

----------
# MEASUREMENT TARGET: P2Y6 (P2ry6^WT BMDMs) (Mus musculus)
# Construct: native full-length receptor, endogenous in mouse bone marrow-derived macrophages (BMDMs); no tag
# PROTOCOL TEXT: Fura-2 intracellular calcium response, BMDMs, Hill fit
# Assay type: cell-based
# TEST PARAMETERS: agonist; native mouse BMDMs; peak F340/F380 normalized to ionomycin; pH 7.4; n = 3; response absent in P2ry6^ΔMy BMDMs
pEC50: −log10 of the molar value.
RESULT TYPE: pEC50

INSERT INTO results (structure_smiles_string, result_type, reported) VALUES
  ('O=c1ccn([C@@H]2O[C@H](COP(=O)(O)OP(=O)(O)O)[C@@H](O)[C@H]2O)c(=O)[nH]1', 'pEC50', 7.38);
